From: patent US20210388087A1

- Measured target: T1, Human CD137 ECD (human)
- T1 construct: also called 4-1BB
- T1 sequence (chain, as listed by the source limits assumed): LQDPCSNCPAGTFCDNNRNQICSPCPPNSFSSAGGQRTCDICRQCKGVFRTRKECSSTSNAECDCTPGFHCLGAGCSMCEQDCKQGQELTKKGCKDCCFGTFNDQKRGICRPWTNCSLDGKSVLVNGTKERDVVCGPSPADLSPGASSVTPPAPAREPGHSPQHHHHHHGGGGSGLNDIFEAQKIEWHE
- Assay procedure: single mutant vs template dBBDu183H
Measured fold change of affinity accompanies every entry in the list below.

Binder	Units text	fold change of affinity
H183/L072 VH M34F (antibody, name in Kabat numbering, V domains shown) VH: QVQLVESGGGLVQPGRSLRLSCAASGFTFSNAWFHWVRQAPGKGLEWVAQIKDKGNAYAAYYAPSVKGRFTISRDDSKNSIYLQMNSLKTEDTAVYYCHYVHYASASTVLPAFGVDAWGQGTTVTVSS VL: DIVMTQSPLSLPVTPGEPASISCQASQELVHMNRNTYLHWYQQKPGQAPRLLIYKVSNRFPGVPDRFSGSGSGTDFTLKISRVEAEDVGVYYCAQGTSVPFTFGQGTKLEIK	fold	2.5
H183/L072 VH H35V (antibody, name in Kabat numbering, V domains shown) VH: QVQLVESGGGLVQPGRSLRLSCAASGFTFSNAWMVWVRQAPGKGLEWVAQIKDKGNAYAAYYAPSVKGRFTISRDDSKNSIYLQMNSLKTEDTAVYYCHYVHYASASTVLPAFGVDAWGQGTTVTVSS VL: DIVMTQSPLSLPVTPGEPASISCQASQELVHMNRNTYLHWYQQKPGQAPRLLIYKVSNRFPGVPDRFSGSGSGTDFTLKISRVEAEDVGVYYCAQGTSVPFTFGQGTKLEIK	fold	0.5
H183/L072 VH A56R (antibody, name in Kabat numbering, V domains shown) VH: QVQLVESGGGLVQPGRSLRLSCAASGFTFSNAWMHWVRQAPGKGLEWVAQIKDKGNAYRAYYAPSVKGRFTISRDDSKNSIYLQMNSLKTEDTAVYYCHYVHYASASTVLPAFGVDAWGQGTTVTVSS VL: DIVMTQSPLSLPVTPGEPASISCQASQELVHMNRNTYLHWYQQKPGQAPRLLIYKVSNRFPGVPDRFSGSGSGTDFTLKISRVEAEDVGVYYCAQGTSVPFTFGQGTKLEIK	fold	0.8
